Measured values drawn from patent US20240279318A1 for this set.

- SUBJECT_OF_TEST: OR1I1 peptide/HLA-A*02:01 complex (recombinant) (human)
- PROCEDURE_SUMMARY: SPR

[
  {
    "BINDER": "AS170036 VL1VH1-VHG56F (scFv) scFv: QSALTQPRSVSGSPGQSVTISCAGTSSDVGSENYVSWYQQHPGKAPKLMIYQVNKRASGVPDRFSGSKSGNTASLTISGLQAEDEADYYCASYRSSDHNIVFGGGTKLTVLGGGGSGGGGSGGGGSEVQLVESGGGLVQPGGSLRLSCAASGFTFSSYAMSWVRQAPGKGLEWVSTINSGTFSPYYADSVKGRFTISRDNSKNTLYLQMNSLRAEDTAVYYCAKNFFDGSWFLGPPAMDYWGQGTLVTVSSHHHHHH",
    "binding result": "no binding"
  },
  {
    "BINDER": "AS170036 VL1VH1-VHG108E (scFv) scFv: QSALTQPRSVSGSPGQSVTISCAGTSSDVGSENYVSWYQQHPGKAPKLMIYQVNKRASGVPDRFSGSKSGNTASLTISGLQAEDEADYYCASYRSSDHNIVFGGGTKLTVLGGGGSGGGGSGGGGSEVQLVESGGGLVQPGGSLRLSCAASGFTFSSYAMSWVRQAPGKGLEWVSTINSGTGSPYYADSVKGRFTISRDNSKNTLYLQMNSLRAEDTAVYYCAKNFFDGSWFLEPPAMDYWGQGTLVTVSSHHHHHH",
    "binding result": "no binding"
  }
]
